# Tested on: ES4 (Ewing's Sarcoma)
# assay: combination Emax (second highest fraction inhibited in the dose matrix, 72 h); higher = more inhibition; extreme values may be limits of the assay
recordedMetric: combination Emax
Response field accepts a number only; no unit should be typed.

Data request, read-out combination Emax, for CN(CCO)CC[C@H](CSc1ccccc1)Nc1ccc(S(=O)(=O)NC(=O)c2ccc(N3CCC([C@@H](O)c4ccccc4-c4ccc(Cl)cc4)CC3)cc2)cc1S(=O)(=O)C(F)(F)F [AZD4320] + C1CN(CCC1(C(=O)N[C@@H](CCO)C2=CC=C(C=C2)Cl)N)C3=NC=NC4=C3C=CN4 [Capivasertib] (first compound max 1 µM, 7x7, partner max 3 µM)
0.564

Continue with CC1(C)CCC(CN2CCN(c3ccc(C(=O)NS(=O)(=O)c4ccc(NCC5CCOCC5)c([N+](=O)[O-])c4)c(Oc4cnc5[nH]ccc5c4)c3)CC2)=C(c2ccc(Cl)cc2)C1 [Venetoclax] + C=CCn1c(=O)c2cnc(Nc3ccc(N4CCN(C)CC4)cc3)nc2n1-c1cccc(C(C)(C)O)n1 [AZD1775] (first compound max 1 µM, partner max 1 µM)
0.437

Continue with COc1nnc2ccc(N3CCC(c4ccc(OCCN5CCN(C)C(=O)[C@H]5C)cc4)CC3)nn12 [AZD5153] + CCN(CCO)CCCOc1ccc2c(Nc3cc(CC(=O)Nc4cccc(F)c4)[nH]n3)ncnc2c1 [AZD2811] (first compound max 1 µM, 7x7, partner max 1 µM)
0.685

----------
# Test system: HT-1376 (Bladder Carcinoma);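 also: after 72 h of two-drug dosing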
# assay: Bliss excess, mean over the matrix (fraction); higher = more synergy
recordedMetric: Bliss excess
Response field accepts a number only; no unit should be typed.

{"molecule": "CCN(CCO)CCCOc1ccc2c(Nc3cc(CC(=O)Nc4cccc(F)c4)[nH]n3)ncnc2c1 [AZD2811] + O=C(c1cc(Cc2n[nH]c(=O)c3ccccc23)ccc1F)N1CCN(C(=O)C2CC2)CC1 [Olaparib] (first compound max 1 µM, 7x7, partner max 10 µM)", "Bliss excess": -0.0499}

Data request, read-out Bliss excess, for O=C(c1cc(Cc2n[nH]c(=O)c3ccccc23)ccc1F)N1CCN(C(=O)C2CC2)CC1 [Olaparib] + CC1(C)CCC(CN2CCN(c3ccc(C(=O)NS(=O)(=O)c4ccc(NCC5CCOCC5)c([N+](=O)[O-])c4)c(Oc4cnc5[nH]ccc5c4)c3)CC2)=C(c2ccc(Cl)cc2)C1 [Venetoclax] (first compound max 10 µM, 7x7, partner max 1 µM)
-0.0522

Continue with Cc1c2c(nn1C)CSCc1cc(n(C)n1)CSc1cc(c3ccccc3c1)OCCCc1c(C(=O)O)n(C)c3c-2c(Cl)ccc13 [AZD5991] + CC(=O)O[C@H]1C(=O)[C@@]2(C)[C@H]([C@H](OC(=O)c3ccccc3)[C@]3(O)C[C@H](OC(=O)[C@H](O)[C@@H](NC(=O)c4ccccc4)c4ccccc4)C(C)=C1C3(C)C)[C@]1(OC(C)=O)CO[C@@H]1C[C@@H]2O [Paclitaxel] (first compound max 1 µM, 7x7, partner max 3 µM)
-0.0424

----------
# Tested on: Daoy (Other Solid Carcinomas)
# assay: combination Emax (second highest fraction inhibited in the dose matrix, 72 h); higher = more inhibition; extreme values may be limits of the assay
Binning of combination Emax into classes: low band (below 0.3), middle band (0.3 to below 0.9), high band (0.9 or more)

{"molecule": "COc1nnc2ccc(N3CCC(c4ccc(OCCN5CCN(C)C(=O)[C@H]5C)cc4)CC3)nn12 [AZD5153] + Cn1cnc2c(F)c(Nc3ccc(Br)cc3Cl)c(C(=O)NOCCO)cc21 [Selumetinib] (first compound max 1 µM, 7x7, partner max 10 µM)", "systemTested": "Daoy (Other Solid Carcinomas)", "label": "middle band"}
{"molecule": "CN(C)CCCOc1ccc(-c2ccc3ncc4c(c3c2)n(C2CCOCC2)c(=O)n4C)cn1 [AZD0156] + O=C(c1cc(Cc2n[nH]c(=O)c3ccccc23)ccc1F)N1CCN(C(=O)C2CC2)CC1 [Olaparib] (first compound max 3 µM, partner max 3 µM)", "systemTested": "Daoy (Other Solid Carcinomas)", "label": "middle band"}
{"molecule": "CC1(C)CCC(CN2CCN(c3ccc(C(=O)NS(=O)(=O)c4ccc(NCC5CCOCC5)c([N+](=O)[O-])c4)c(Oc4cnc5[nH]ccc5c4)c3)CC2)=C(c2ccc(Cl)cc2)C1 [Venetoclax] + C[C@@H](Nc1cc(F)cc(F)c1)c1cc(C(=O)N(C)C)cc2c(=O)cc(N3CCOCC3)oc12 [AZD8186] (first compound max 1 µM, 7x7, partner max 3 µM)", "systemTested": "Daoy (Other Solid Carcinomas)", "label": "low band"}
{"molecule": "C=CCn1c(=O)c2cnc(Nc3ccc(N4CCN(C)CC4)cc3)nc2n1-c1cccc(C(C)(C)O)n1 [AZD1775] + C[C@@H]1COCCN1C2=NC(=NC(=C2)C3(CC3)[S@](=N)(=O)C)C4=C5C=CNC5=NC=C4 [AZD6738] (first compound max 1 µM, partner max 10 µM)", "systemTested": "Daoy (Other Solid Carcinomas)", "label": "high band"}
{"molecule": "COc1cccc(OCCCN)c1-c1cc(Nc2cnc(C#N)cn2)n[nH]1 [Prexasertib] + C[C@@H]1COCCN1C2=NC(=NC(=C2)C3(CC3)[S@](=N)(=O)C)C4=C5C=CNC5=NC=C4 [AZD6738] (first compound max 1 µM, 7x7, partner max 10 µM)", "systemTested": "Daoy (Other Solid Carcinomas)", "label": "high band"}

Sort into band: C[C@@H](c1ccc2nccn2c1)n1nnc2ncc(-c3cnn(C)c3)nc21 [Savolitinib] + CN(CC[C@H](CSC1=CC=CC=C1)NC2=C(C=C(C=C2)S(=O)(=O)NC(=O)C3=CC=C(C=C3)N4CCC(CC4)[C@H](C5=CC=CC=C5C6=CC=C(C=C6)Cl)O)S(=O)(=O)C(F)(F)F)CCO [AZD4320] (first compound max 1 µM, 7x7, partner max 1 µM)
low band

Continue with Cc1c2c(nn1C)CSCc1cc(n(C)n1)CSc1cc(c3ccccc3c1)OCCCc1c(C(=O)O)n(C)c3c-2c(Cl)ccc13 [AZD5991] + CCN(CCO)CCCOc1ccc2c(Nc3cc(CC(=O)Nc4cccc(F)c4)[nH]n3)ncnc2c1 [AZD2811] (first compound max 1 µM, 7x7, partner max 1 µM)
middle band

Continue with C[C@@H]1COCCN1c1cc(C2([S@](C)(=N)=O)CC2)nc(-c2ccnc3[nH]ccc23)n1 [AZD6738] + O=C(c1cc(Cc2n[nH]c(=O)c3ccccc23)ccc1F)N1CCN(C(=O)C2CC2)CC1 [Olaparib] (first compound max 10 µM, 7x7, partner max 10 µM)
middle band

----------
combination Emax listing for selected compounds.
# Tested on: CaR-1 (Colorectal Carcinoma)
# assay: combination Emax (second highest fraction inhibited in the dose matrix, 72 h); higher = more inhibition; extreme values may be limits of the assay
Response field accepts a number only; no unit should be typed.

{"compound": "C=CCn1c(=O)c2cnc(Nc3ccc(N4CCN(C)CC4)cc3)nc2n1-c1cccc(C(C)(C)O)n1 [AZD1775] + O=C(c1cc(Cc2n[nH]c(=O)c3ccccc23)ccc1F)N1CCN(C(=O)C2CC2)CC1 [Olaparib] (first compound max 1 µM, partner max 10 µM)", "recordedMetric": "combination Emax", "number": 0.257}
{"compound": "CC1(C)CCC(CN2CCN(c3ccc(C(=O)NS(=O)(=O)c4ccc(NCC5CCOCC5)c([N+](=O)[O-])c4)c(Oc4cnc5[nH]ccc5c4)c3)CC2)=C(c2ccc(Cl)cc2)C1 [Venetoclax] + Cn1cnc2c(F)c(Nc3ccc(Br)cc3Cl)c(C(=O)NOCCO)cc21 [Selumetinib] (first compound max 1 µM, 7x7, partner max 3 µM)", "recordedMetric": "combination Emax", "number": 0.103}
{"compound": "CN(CCO)CC[C@H](CSc1ccccc1)Nc1ccc(S(=O)(=O)NC(=O)c2ccc(N3CCC([C@@H](O)c4ccccc4-c4ccc(Cl)cc4)CC3)cc2)cc1S(=O)(=O)C(F)(F)F [AZD4320] + C[C@@H](Nc1cc(F)cc(F)c1)c1cc(C(=O)N(C)C)cc2c(=O)cc(N3CCOCC3)oc12 [AZD8186] (first compound max 1 µM, 7x7, partner max 3 µM)", "recordedMetric": "combination Emax", "number": 0.246}

Data request, read-out combination Emax, for COc1cccc(OCCCN)c1-c1cc(Nc2cnc(C#N)cn2)n[nH]1 [Prexasertib] + C[C@@H]1COCCN1C2=NC(=NC(=C2)C3(CC3)[S@](=N)(=O)C)C4=C5C=CNC5=NC=C4 [AZD6738] (first compound max 1 µM, 7x7, partner max 10 µM)
0.696

Continue with Cc1cc2ncnn2cc1Nc1ncc2c(n1)n(C1CCOCC1)c(=O)n2C [AZD7648] + O=C(c1cc(Cc2n[nH]c(=O)c3ccccc23)ccc1F)N1CCN(C(=O)C2CC2)CC1 [Olaparib] (first compound max 10 µM, 7x7, partner max 10 µM)
0.111

Continue with Cc1c2c(nn1C)CSCc1cc(n(C)n1)CSc1cc(c3ccccc3c1)OCCCc1c(C(=O)O)n(C)c3c-2c(Cl)ccc13 [AZD5991] + CCN(CCO)CCCOc1ccc2c(Nc3cc(CC(=O)Nc4cccc(F)c4)[nH]n3)ncnc2c1 [AZD2811] (first compound max 1 µM, 7x7, partner max 1 µM)
0.338

Continue with Cc1c2c(nn1C)CSCc1cc(n(C)n1)CSc1cc(c3ccccc3c1)OCCCc1c(C(=O)O)n(C)c3c-2c(Cl)ccc13 [AZD5991] + CC1(C)CCC(CN2CCN(c3ccc(C(=O)NS(=O)(=O)c4ccc(NCC5CCOCC5)c([N+](=O)[O-])c4)c(Oc4cnc5[nH]ccc5c4)c3)CC2)=C(c2ccc(Cl)cc2)C1 [Venetoclax] (first compound max 1 µM, 7x7, partner max 1 µM)
0.144
